- system: Recombinant Cx43CT (carboxyl terminal domain of connexin43, sequence 255-382 of rCx43 preceded by GPLG) (rat, UniProt P08050)
- Sequence (P08050 other isoform, or with tags, fused parts or gaps limits assumed): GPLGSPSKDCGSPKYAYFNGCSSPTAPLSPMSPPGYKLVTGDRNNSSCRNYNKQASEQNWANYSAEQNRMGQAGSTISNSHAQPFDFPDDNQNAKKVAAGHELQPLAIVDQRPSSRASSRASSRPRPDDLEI
- assay.summary: SPR, Cx43CT immobilised, peptide at 500 uM

| binder | SPR respons at 500 uM |
| --- | --- |
| Ac-RRNYRRNY-NH2 [Compound 2497] | 328 arbitrary units |
| Ac-RRNYGGGSAVPFYRRNY-NH2 [Compound 2508] | 547 arbitrary units |
| Ac-RRNYGGSAVPFYSHRRNY-NH2 [Compound 2510] | 643 arbitrary units |
